Recorded %Inh, one value per entry.
System: PYK2
Construct: gene PTK2B
details: concentration: 1 μM, replicates: in singlicate; n = 1;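 also: KINOMEscan kinase panel screen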
The reply should be a number in %, with the unit left off.

>>> assayresult("Cc1ccc(F)c(C(=O)Nc2cccc(-c3nn4ccccc4c3-c3ccnc(Nc4cccc(F)c4)n3)c2)c1F [GSK361061]")
0
>>> assayresult("O=C(Nc1cccc(Oc2ccc3nc(NC(=O)C4CC4)cn3n2)c1)c1ccccc1C(F)(F)F")
6
>>> assayresult("COC(=O)Nc1nc2cc(Oc3ccc(NC(=O)Nc4cc(C(F)(F)F)ccc4F)cn3)ccc2[nH]1.Cl.Cl [GW681170]")
16
>>> assayresult("Cc1cccc(NC(=O)Nc2ccc(Oc3ncnc4ccn(C)c34)cc2)c1")
0
>>> assayresult("Cc1ccc(C(=O)Nc2ccc(Nc3ccnc4cc(-c5nccs5)ccc34)cc2O)cc1.Cl [GW494702]")
0
>>> assayresult("Cl.Cl.NCC(NC(=O)c1cc(-c2ccccc2)c(-c2ccnc3[nH]ccc23)s1)c1ccccc1 (stereo not shown) [GSK1321561]")
0

Measured %Inh, Nc1ncnc2c1nc(-c1ccccc1)n2-c1ccccc1 [SKF-97293] : 8

Measured %Inh, COc1cccc(C2=C(Nc3ccc(Cl)c(C(=O)O)c3)C(=O)NC2=O)c1 [SB-390769] : 0

Measured %Inh, O=C(Nc1cccc(-c2nn3ncccc3c2-c2ccnc(Nc3ccccc3)n2)c1)c1c(F)cccc1F [GSK198271] : 27

Measured %Inh, Cn1cc(-c2ccc3c(c2)CCN3C(=O)Cc2cccc(Cl)c2)c2c(N)ncnc21 [GSK2606590] : 4

====

System: CSNK2A2
details: concentration: 1 μM, replicates: in singlicate; n = 1
Recorded %Inh, one value per entry.
Phrase the answer as number then unit, nothing more needed.

Please review the following examples before continuing.
>>> assayresult("CN1CCN(CCCNc2nccc(-c3c(-c4ccc(F)cc4)nn4cc(C(F)(F)F)ccc34)n2)CC1")
"0%"
>>> assayresult("Cc1ccc(F)c(C(=O)Nc2cccc(-c3nn4ccccc4c3-c3ccnc(Nc4cccc(F)c4)n3)c2)c1F")
"10%"
>>> assayresult("Nc1ncc(-c2cccnc2)c2scc(-c3ccc4c(c3)CCN4C(=O)Cc3ccccc3)c12")
"28%"
>>> assayresult("O=C(Nc1cccc(-c2nn3ncccc3c2-c2ccnc(Nc3ccccc3)n2)c1)c1c(F)cccc1F")
"11%"
>>> assayresult("COc1cc(Nc2nccc(-c3c(-c4cccc(NC(=O)c5c(F)cccc5F)c4)nn4ncccc34)n2)cc(OC)c1OC")
"4%"
>>> assayresult("Cl.Cl.NCC(NCc1ccc(-c2ccnc3[nH]ccc23)s1)c1ccccc1 (centres unmarked)")
"37%"
>>> assayresult("COc1cc(Nc2nccc(N3CCC(NC(=O)Nc4cccc(C(C)=O)c4)C3)n2)cc(OC)c1OC (centres unmarked)")
"16%"

Measured %Inh, COc1cccc(C(=O)Nc2cccc(Oc3ccc4nc(NC(=O)C5CC5)cn4n3)c2)c1 : 17%

====

Tested on: HPK1
details: concentration: 1 μM, replicates: in singlicate; n = 1
metric: %Inh (%)
The reply should be a number in %, with the unit left off.

>>> assayresult("Cc1ccc(C(=O)Nc2ccc(Nc3ccnc4cc(-c5nccs5)ccc34)cc2O)cc1.Cl")
1
>>> assayresult("O=C(Nc1n[nH]c2cc(-c3ccoc3)ccc12)C1CC1")
7
>>> assayresult("CC(=O)Nc1nc2cnc(Nc3cc(NC(=O)c4cccc(C5(C#N)CC5)c4Cl)ccc3C)nc2s1")
1

Measured %Inh, COc1cc2c(cc1OCCN1CCNCC1)ncc1c3ccc(C#N)cc3[nH]c21 : 0

Measured %Inh, COc1cccc(C2=C(Nc3ccc(Cl)c(C(=O)O)c3)C(=O)NC2=O)c1 : 55

====

Test system: GAK
details: concentration: 1 μM, replicates: in singlicate; n = 1
Recorded %Inh, one value per entry.
The reply should be a number in %, with the unit left off.

Please review the following examples before continuing.
>>> assayresult("CNC(=O)c1ccccc1Nc1nc(Nc2ccc(N3CCOCC3)cc2)ncc1Cl.Cl [GSK1576028]")
96.9
>>> assayresult("Nc1n[nH]c2cnc(-c3ccccc3)cc12 [SB-642124]")
13
>>> assayresult("COc1cccc(C2=C(Nc3ccc(Cl)c(C(=O)O)c3)C(=O)NC2=O)c1 [SB-390769]")
8
>>> assayresult("c1ccc(Oc2ccc(Nc3ccnc4cc(-c5ccc(CNCCN6CCOCC6)o5)ccc34)cc2)nc1 [GW567145]")
82

Attention now turns to another entry.
Measured %Inh, O=C(NC1CCN(c2ccnc(Nc3ccc(F)cc3)n2)C1)c1cc2ccccc2s1 (centres unmarked) [GSK1379716] : 13

====

Tested on: ROCK2
details: concentration: 1 μM, replicates: in singlicate; n = 1
metric: %Inh (%)
The reply should be a number in %, with the unit left off.

>>> assayresult("COc1ccc(-c2coc3ccc(-c4nnc(SCc5ccc(OC)c(C(F)(F)F)c5)o4)cc23)cc1")
23
>>> assayresult("O=C(O)C(F)(F)F.O=C(O)C(F)(F)F.O=c1[nH]ccc2nc(N[C@@H]3CCCNC3)nc(Nc3ccc(S(=O)(=O)N4CCOCC4)cc3)c12")
92.8
>>> assayresult("O=c1[nH]cc(-c2ccc(N3CCOCC3)cc2)c2sc(-c3cn[nH]c3)cc12")
0
>>> assayresult("Nc1ncnc2c1nc(-c1ccccc1)n2-c1ccccc1")
43
>>> assayresult("NCCCC(NC(=O)c1cc(Br)c(-c2ccnc3[nH]ccc23)s1)c1ccccc1.O=C(O)C(F)(F)F.O=C(O)C(F)(F)F (centres unmarked)")
92.8

Measured %Inh, COc1ccc(Nc2nccc(NCCNC(=O)c3cc4ccccc4s3)n2)cc1 : 28

Measured %Inh, CCCCc1nn2ncccc2c1-c1ccnc(Nc2ccc(N3CCN(C)CC3)cc2)n1 : 30

Measured %Inh, Cc1cccc(Nc2nc(N[C@H]3CCNC3)ncc2C(N)=O)c1.Cl : 45

====

Test system: BRK
Construct: gene PTK6
details: concentration: 1 μM, replicates: in singlicate; n = 1
metric: %Inh (%)
The reply should be a number in %, with the unit left off.

Please review the following examples before continuing.
>>> assayresult("COc1ccc(-c2coc3ccc(-c4nnc(SCc5ccc(OC)c(C(F)(F)F)c5)o4)cc23)cc1")
0
>>> assayresult("COc1ccc(CNC(=O)NC2CCN(c3ccnc(Nc4ccc(F)cc4)n3)CC2)cc1 [GSK1379788]")
0
>>> assayresult("O=C(NC1CCN(c2ccnc(Nc3ccc(F)cc3)n2)C1)c1cc2ccccc2s1 (centres unmarked) [GSK1379716]")
25
>>> assayresult("Cl.Cl.NCC(C(=O)Nc1cc(Br)c(-c2ccnc3[nH]ccc23)s1)c1ccccc1 (centres unmarked) [GSK1269851]")
7
>>> assayresult("CCCCc1nn2ncccc2c1-c1ccnc(Nc2ccc(N3CCN(C)CC3)cc2)n1 [GW684941]")
69

Measured %Inh, COc1cc2c(cc1OCCN1CCNCC1)ncc1c3ccc(C#N)cc3[nH]c21 : 0

Measured %Inh, Cl.NC(=O)c1cccc(Nc2nccc(Nc3ccc(Oc4c(Cl)cccc4Cl)c(Cl)c3)n2)c1 [GW659009] : 76

Measured %Inh, Clc1ccc(-c2nn3ncccc3c2-c2ccnc(Nc3ccc4c(c3)OCCO4)n2)cc1 [GW829116] : 0

Measured %Inh, CN(c1ccc(NC(=O)Nc2cc(C(F)(F)F)ccc2F)cc1)c1ccnc(Nc2ccc(S(N)(=O)=O)cc2)n1 [GW809893] : 76

Measured %Inh, Cc1ccc(F)c(C(=O)Nc2cccc(-c3nn4ccccc4c3-c3ccnc(Nc4cccc(F)c4)n3)c2)c1F [GSK361061] : 74

Measured %Inh, O=C(Nc1n[nH]c2cc(-c3ccoc3)ccc12)C1CC1 [SB-738481] : 0

Measured %Inh, COc1cc(Nc2ncc3c(C)nc(-c4cc5ccccc5[nH]4)n3n2)cc(OC)c1OC [GW869516] : 36

====

Test system: EPHB6
details: concentration: 1 μM, replicates: in singlicate; n = 1
metric: %Inh (%)
The reply should be a number in %, with the unit left off.

Please review the following examples before continuing.
>>> assayresult("Cl.Cl.NCC(C(=O)Nc1cc(Br)c(-c2ccnc3[nH]ccc23)s1)c1ccccc1 (stereo not shown) [GSK1269851]")
1
>>> assayresult("Cl.c1ccc(-c2ccc3c(Nc4ccc5[nH]ccc5c4)ccnc3c2)nc1 [GW440138]")
79
>>> assayresult("C[C@@H](Oc1cc(-n2cnc3cc(-c4ccnc(NCCS(C)(=O)=O)c4)ccc32)sc1C(N)=O)c1ccccc1Cl [GSK907232]")
60

Measured %Inh, Cl.Cl.NCC(NC(=O)c1cc(-c2ccccc2)c(-c2ccnc3[nH]ccc23)s1)c1ccccc1 (stereo not shown) [GSK1321561] : 2

====

System: MYLK4
details: concentration: 1 μM, replicates: in singlicate; n = 1
Recorded %Inh, one value per entry.
The reply should be a number in %, with the unit left off.

Please review the following examples before continuing.
>>> assayresult("COc1cccc(C2=C(Nc3ccc(Cl)c(C(=O)O)c3)C(=O)NC2=O)c1 [SB-390769]")
60
>>> assayresult("c1ccc(-c2n[nH]cc2Nc2ccnc3ccccc23)nc1 [GW694077]")
99.9
>>> assayresult("c1ccc(Oc2ccc(Nc3ccnc4cc(-c5ccc(CNCCN6CCOCC6)o5)ccc34)cc2)nc1 [GW567145]")
0
>>> assayresult("FC(F)(F)c1ccc(/C=C/c2cncnc2Nc2ccc3[nH]c(Cc4ccccc4)nc3c2)cc1 [GW709199]")
25
>>> assayresult("Clc1ccc(-c2nn3ncccc3c2-c2ccnc(Nc3ccc4c(c3)OCCO4)n2)cc1 [GW829116]")
0

Measured %Inh, Cc1ccc(C)c(NC(=O)NC2CCN(c3ccnc(Nc4ccc(F)cc4)n3)C2)c1 (centres unmarked) [GSK1379720] : 0

Measured %Inh, CN1CCN(Cc2cccc(-c3ccc4c(Nc5ccc(Oc6ccccc6)cc5)ccnc4c3)c2)CC1 [GW578342] : 0

Measured %Inh, CCn1c(-c2nonc2N)nc2c(C#CC(C)(C)O)nc(OC[C@H](N)c3ccccc3)cc21 [GSK943949] : 0
